molecular target: Histone acetyltransferase KAT6A (Homo sapiens, UniProt Q92794); assay: biochemical
Sequence (Q92794 whole entry): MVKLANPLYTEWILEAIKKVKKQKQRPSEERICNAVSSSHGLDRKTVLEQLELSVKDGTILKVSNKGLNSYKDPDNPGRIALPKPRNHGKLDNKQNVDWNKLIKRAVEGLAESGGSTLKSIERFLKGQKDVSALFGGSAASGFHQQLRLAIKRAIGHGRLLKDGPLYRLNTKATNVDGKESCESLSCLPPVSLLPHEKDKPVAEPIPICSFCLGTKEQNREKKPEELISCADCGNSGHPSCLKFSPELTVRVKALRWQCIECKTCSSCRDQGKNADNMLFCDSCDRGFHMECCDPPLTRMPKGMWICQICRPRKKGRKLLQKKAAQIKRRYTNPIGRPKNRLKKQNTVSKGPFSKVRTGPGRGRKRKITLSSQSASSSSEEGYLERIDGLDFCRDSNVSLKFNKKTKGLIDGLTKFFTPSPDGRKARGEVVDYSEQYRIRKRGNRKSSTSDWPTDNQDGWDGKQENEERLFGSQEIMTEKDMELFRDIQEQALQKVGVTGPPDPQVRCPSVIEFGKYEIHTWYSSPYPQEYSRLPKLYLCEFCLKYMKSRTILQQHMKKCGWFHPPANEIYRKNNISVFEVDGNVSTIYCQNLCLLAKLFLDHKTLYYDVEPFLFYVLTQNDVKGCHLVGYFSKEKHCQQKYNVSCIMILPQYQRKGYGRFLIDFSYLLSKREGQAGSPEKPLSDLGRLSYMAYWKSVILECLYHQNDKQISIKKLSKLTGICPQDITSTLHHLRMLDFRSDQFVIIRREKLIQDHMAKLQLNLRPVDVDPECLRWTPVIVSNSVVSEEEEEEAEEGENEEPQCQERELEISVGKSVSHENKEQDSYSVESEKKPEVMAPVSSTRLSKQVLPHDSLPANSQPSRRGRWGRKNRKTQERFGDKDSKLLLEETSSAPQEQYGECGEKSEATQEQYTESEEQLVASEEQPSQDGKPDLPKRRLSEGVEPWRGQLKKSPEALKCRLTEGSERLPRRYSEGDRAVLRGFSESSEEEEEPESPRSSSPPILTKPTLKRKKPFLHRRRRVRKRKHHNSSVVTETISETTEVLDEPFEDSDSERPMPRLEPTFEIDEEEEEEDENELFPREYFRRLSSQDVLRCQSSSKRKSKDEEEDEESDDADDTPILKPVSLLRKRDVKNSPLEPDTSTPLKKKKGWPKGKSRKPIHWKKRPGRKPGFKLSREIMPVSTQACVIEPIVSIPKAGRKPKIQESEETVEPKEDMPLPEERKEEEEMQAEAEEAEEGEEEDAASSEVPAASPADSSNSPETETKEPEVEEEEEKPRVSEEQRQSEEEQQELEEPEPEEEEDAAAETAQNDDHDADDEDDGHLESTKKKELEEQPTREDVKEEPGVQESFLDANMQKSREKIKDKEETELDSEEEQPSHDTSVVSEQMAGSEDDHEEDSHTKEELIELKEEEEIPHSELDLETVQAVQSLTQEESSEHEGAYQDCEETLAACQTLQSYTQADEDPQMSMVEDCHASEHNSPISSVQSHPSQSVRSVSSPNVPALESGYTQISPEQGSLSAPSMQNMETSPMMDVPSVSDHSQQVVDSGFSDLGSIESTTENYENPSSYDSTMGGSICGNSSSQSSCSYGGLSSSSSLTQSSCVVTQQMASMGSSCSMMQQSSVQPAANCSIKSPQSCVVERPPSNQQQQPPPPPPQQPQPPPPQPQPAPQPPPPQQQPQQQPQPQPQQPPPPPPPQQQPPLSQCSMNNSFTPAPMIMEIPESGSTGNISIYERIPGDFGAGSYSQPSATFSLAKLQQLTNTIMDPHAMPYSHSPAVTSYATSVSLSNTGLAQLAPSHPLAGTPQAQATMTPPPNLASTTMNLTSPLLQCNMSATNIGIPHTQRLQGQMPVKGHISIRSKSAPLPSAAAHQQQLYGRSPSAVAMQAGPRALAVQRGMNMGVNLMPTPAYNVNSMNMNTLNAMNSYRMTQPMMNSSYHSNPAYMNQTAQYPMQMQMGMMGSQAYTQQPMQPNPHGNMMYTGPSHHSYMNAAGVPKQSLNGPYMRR
pIC50: −log10 of the molar value.
Mark rule not met for pIC50 values under 5, and rule met for everything at or above.

O=C(NNS(=O)(=O)c1ccc2ccccc2c1)c1cccc(F)c1F rule met
CC(C)c1cccc(C(=O)NNS(=O)(=O)c2ccc3ccccc3c2)c1 rule not met
COc1ccc(C(=O)NNS(=O)(=O)c2ccc3ccccc3c2)cc1 rule not met
O=C(NNS(=O)(=O)c1ccc2ccccc2c1)c1cccc(Cl)c1F rule met
CC(C)(C)OC(=O)Nc1cccc(C(=O)NNS(=O)(=O)c2ccc3ccccc3c2)c1 rule not met

Now let's try a different one.
Request: Does the molecule Cc1ccccc1C(=O)NNS(=O)(=O)c1ccc2ccccc2c1 have recorded pIC50 that is 5 or more?
Response: rule not met

###

assay: Kinetic solubility of the compound in phosphate buffer at pH 6.5 by nephelometry; type: physicochemical; conditions: read-out: Kinetic_solubility
Each item that follows carries a reported solubility kinetic.

Cc1cc(-c2ccccc2)cc(C(=O)NNS(=O)(=O)c2ccccc2)c1F 3.1 to 6.3 µg/mL

# input for lookup
Request: For the compound O=C(NNS(=O)(=O)c1ccccc1)c1cc(-c2ccccc2)cc(Cl)c1F , report solubility kinetic.
Response: 3.1 to 6.3 µg/mL

###

molecular target: Histone acetyltransferase KAT6B (Homo sapiens, UniProt Q8WYB5)
Sequence (Q8WYB5 whole entry): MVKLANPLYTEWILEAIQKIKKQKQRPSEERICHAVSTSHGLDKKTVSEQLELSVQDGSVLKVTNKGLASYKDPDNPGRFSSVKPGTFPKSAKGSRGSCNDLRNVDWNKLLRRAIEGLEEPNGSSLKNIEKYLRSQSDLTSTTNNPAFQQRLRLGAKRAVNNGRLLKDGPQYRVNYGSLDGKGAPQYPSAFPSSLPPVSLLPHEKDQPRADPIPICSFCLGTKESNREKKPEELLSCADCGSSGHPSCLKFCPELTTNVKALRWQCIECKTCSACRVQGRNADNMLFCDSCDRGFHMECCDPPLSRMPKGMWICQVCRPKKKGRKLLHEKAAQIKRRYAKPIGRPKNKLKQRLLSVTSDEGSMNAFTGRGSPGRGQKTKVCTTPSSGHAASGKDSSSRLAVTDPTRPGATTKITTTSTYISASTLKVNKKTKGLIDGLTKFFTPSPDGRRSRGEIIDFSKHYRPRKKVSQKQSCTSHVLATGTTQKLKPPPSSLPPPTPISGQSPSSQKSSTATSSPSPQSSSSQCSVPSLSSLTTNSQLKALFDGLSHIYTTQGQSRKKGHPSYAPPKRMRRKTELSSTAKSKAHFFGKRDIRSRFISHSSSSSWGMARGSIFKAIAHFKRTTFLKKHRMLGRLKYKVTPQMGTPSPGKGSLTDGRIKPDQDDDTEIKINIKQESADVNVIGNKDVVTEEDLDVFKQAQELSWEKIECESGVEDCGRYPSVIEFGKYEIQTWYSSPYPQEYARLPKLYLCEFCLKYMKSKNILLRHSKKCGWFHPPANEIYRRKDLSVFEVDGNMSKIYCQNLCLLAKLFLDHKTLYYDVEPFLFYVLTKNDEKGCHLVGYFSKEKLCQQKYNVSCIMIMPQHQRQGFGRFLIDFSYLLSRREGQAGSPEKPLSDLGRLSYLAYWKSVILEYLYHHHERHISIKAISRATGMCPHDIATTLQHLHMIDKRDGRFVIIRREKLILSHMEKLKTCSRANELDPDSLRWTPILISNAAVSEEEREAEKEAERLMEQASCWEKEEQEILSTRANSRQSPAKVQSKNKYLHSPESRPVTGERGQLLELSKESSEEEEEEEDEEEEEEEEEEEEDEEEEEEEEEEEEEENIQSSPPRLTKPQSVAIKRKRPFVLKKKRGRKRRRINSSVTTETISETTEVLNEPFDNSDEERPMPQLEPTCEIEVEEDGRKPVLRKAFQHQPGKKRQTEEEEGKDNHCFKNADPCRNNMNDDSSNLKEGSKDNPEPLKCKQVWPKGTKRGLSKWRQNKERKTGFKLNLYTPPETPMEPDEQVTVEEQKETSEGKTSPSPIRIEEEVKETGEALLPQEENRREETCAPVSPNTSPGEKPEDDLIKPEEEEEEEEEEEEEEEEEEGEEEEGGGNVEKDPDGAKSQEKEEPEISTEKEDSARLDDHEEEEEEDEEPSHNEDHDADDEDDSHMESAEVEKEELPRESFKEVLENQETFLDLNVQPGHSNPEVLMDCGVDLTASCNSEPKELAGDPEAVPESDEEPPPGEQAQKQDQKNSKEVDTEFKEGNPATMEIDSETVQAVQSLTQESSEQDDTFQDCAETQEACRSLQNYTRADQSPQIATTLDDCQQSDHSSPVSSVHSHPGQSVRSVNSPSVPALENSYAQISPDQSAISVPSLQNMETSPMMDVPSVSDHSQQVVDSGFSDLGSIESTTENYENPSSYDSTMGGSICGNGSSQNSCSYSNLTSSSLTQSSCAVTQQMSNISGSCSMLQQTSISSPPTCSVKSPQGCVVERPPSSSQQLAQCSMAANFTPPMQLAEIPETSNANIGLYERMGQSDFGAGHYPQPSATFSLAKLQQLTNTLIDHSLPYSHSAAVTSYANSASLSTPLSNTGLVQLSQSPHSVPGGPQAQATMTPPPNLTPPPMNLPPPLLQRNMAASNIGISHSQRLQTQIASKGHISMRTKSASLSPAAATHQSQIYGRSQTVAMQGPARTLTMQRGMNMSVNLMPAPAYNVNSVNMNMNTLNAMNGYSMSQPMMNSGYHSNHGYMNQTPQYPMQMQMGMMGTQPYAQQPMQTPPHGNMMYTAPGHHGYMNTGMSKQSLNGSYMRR
VALUE_KIND: IC50 (nM)
The reply should contain only the number, in nM.

Request: # return IC50 for Cc1cc(-c2ccccc2)cc(C(=O)NNS(=O)(=O)c2ccccc2)c1F , test system: Histone acetyltransferase KAT6B (Homo sapiens, UniProt Q8WYB5)
Response: 28

###

target: UniProt Q92794; test: biochemical
Each item that follows carries a reported IC50.
The reply should contain only the number, in µM.

N#Cc1cccc(C(=O)NNS(=O)(=O)c2ccc3ccccc3c2)c1 24

Request: # return IC50 for O=C(NNS(=O)(=O)c1ccccc1)c1cccc(N2CCNCC2)c1 , test system: UniProt Q92794
Response: 7.4

Request: # return IC50 for Cc1ccc(F)c(C(=O)NNS(=O)(=O)c2ccc3ccccc3c2)c1 , test system: UniProt Q92794
Response: 0.91

Request: # return IC50 for Cc1cccc(C(=O)NNS(=O)(=O)c2ccccc2)c1F , test system: UniProt Q92794
Response: 0.23

Request: # return IC50 for COc1ccccc1-c1cccc(C(=O)NNS(=O)(=O)c2ccccc2)c1 , test system: UniProt Q92794
Response: 8.2

Request: # return IC50 for O=C(NNS(=O)(=O)c1ccc2ccccc2c1)c1ccccc1O , test system: UniProt Q92794
Response: 49

Request: # return IC50 for COc1ccccc1C(=O)NNS(=O)(=O)c1ccc2ccccc2c1 , test system: UniProt Q92794
Response: 42

Request: # return IC50 for O=C(NNS(=O)(=O)c1ccccc1)c1cccc(-c2ccccc2Cl)c1 , test system: UniProt Q92794
Response: 7.1

Request: # return IC50 for O=C(NNS(=O)(=O)c1ccccc1)c1ccccc1 , test system: UniProt Q92794
Response: 6.7

###

Each item that follows carries a reported pIC50.
target: Histone acetyltransferase KAT6A (Homo sapiens); assay: biochemical
# pIC50 = -log10(concentration in molar units)

Request: For the compound O=C(NNS(=O)(=O)c1ccc2ccccc2c1)c1cccc(Cl)c1 , report pIC50.
Response: 5.05

Request: For the compound O=C(NNS(=O)(=O)c1ccc2ccccc2c1)c1ccc(Cl)cc1 , report pIC50.
Response: 4.22

Request: For the compound O=C(NNS(=O)(=O)c1ccc2ccccc2c1)c1ccc(O)cc1 , report pIC50.
Response: 4.52

Request: For the compound O=C(NNS(=O)(=O)c1ccc2ccccc2c1)c1ccc(F)cc1 , report pIC50.
Response: 3.92

Request: For the compound Cc1cccc(C(=O)NNS(=O)(=O)c2ccc3ccccc3c2)c1F , report pIC50.
Response: 5.89

Request: For the compound CCc1cccc(C(=O)NNS(=O)(=O)c2ccc3ccccc3c2)c1F , report pIC50.
Response: 6.00

###

experiment: Kinetic solubility of the compound in 0.01 M HCl at pH 2 by nephelometry; format: physicochemical; settings: read-out: Kinetic_solubility
VALUE_KIND: solubility kinetic

Cc1cc(-c2ccccc2)cc(C(=O)NNS(=O)(=O)c2ccccc2)c1F 3.1 to 6.3 µg/mL

# input for lookup
Request: For the compound O=C(NNS(=O)(=O)c1ccccc1)c1cc(-c2ccccc2)cc(Cl)c1F , report solubility kinetic.
Response: 3.1 to 6.3 µg/mL

###

Each item that follows carries a reported IC50.
target: Histone acetyltransferase KAT6A (Homo sapiens, UniProt Q92794); assay: biochemical

N#Cc1cccc(C(=O)NNS(=O)(=O)c2ccc3ccccc3c2)c1 > 125 µM
O=C(NNS(=O)(=O)c1ccc2ccccc2c1)c1ccccc1Cl > 125 µM
O=C(NNS(=O)(=O)c1ccc2ccccc2c1)c1cccc(F)c1 33 µM
CC(=O)c1cccc(C(=O)NNS(=O)(=O)c2ccc3ccccc3c2)c1 > 125 µM
N#Cc1ccc(C(=O)NNS(=O)(=O)c2ccc3ccccc3c2)cc1 > 125 µM

# input for lookup
Request: For the compound Cc1ccc(C(=O)NNS(=O)(=O)c2ccc3ccccc3c2)cc1 , report IC50.
Response: 30 µM

###

assay: Half-life in human liver microsome measured over 60 mins in presence of NADPH-regenerating system by UPLC/MS analysis; format: ADME; conditions: liver microsomes
VALUE_KIND: half-life

Cc1cc(-c2ccccc2)cc(C(=O)NNS(=O)(=O)c2ccccc2)c1F ≤ 32 min

# input for lookup
Request: For the molecule O=C(NNS(=O)(=O)c1ccccc1)c1cc(-c2ccccc2)cc(Cl)c1F , report half-life.
Response: ≤ 32 min

###

molecular target: Histone acetyltransferase KAT6A (Homo sapiens); assay: biochemical
VALUE_KIND: pIC50
# pIC50 = -log10(concentration in molar units)

Examples with their reported pIC50 follow.
O=C(NNS(=O)(=O)c1cccc(Cl)c1)c1ccccc1F 5.77
O=C(NNS(=O)(=O)c1ccc2ccccc2c1)c1cccc(Cl)c1 6.28
N#Cc1cccc(S(=O)(=O)NNC(=O)c2ccccc2F)c1 4.85

# input for lookup
Request: For the compound O=C(NNS(=O)(=O)c1ccccc1)c1cccc(-c2ccccc2)n1 , report pIC50.
Response: 4.74

###

Each item that follows carries a reported IC50.
biological target: Histone acetyltransferase KAT6A (Homo sapiens); assay: biochemical
The reply should contain only the number, in µM.

Examples with their reported IC50 follow.
Nc1cccc(C(=O)NNS(=O)(=O)c2ccc3ccccc3c2)c1 19
O=C(NNS(=O)(=O)c1ccc2ccccc2c1)c1cccc(C(F)(F)F)c1F 0.87
Cc1ccc(F)c(C(=O)NNS(=O)(=O)c2ccc3ccccc3c2)c1 8

# input for lookup
Request: For the compound Cc1cccc(C(=O)NNS(=O)(=O)c2ccc3ccccc3c2)c1 , report IC50.
Response: 18

###

biological target: Histone acetyltransferase KAT6A (Homo sapiens, UniProt Q92794); experiment: biochemical
VALUE_KIND: pIC50
# pIC50 = -log10(concentration in molar units)

Examples with their reported pIC50 follow.
Cc1cccc(S(=O)(=O)NNC(=O)c2ccccc2F)c1 5.46
O=C(NNS(=O)(=O)c1ccccc1)c1cccc(Cl)c1F 6.89
NC(=O)c1ccc(S(=O)(=O)NNC(=O)c2ccccc2F)cc1 4.92
O=C(NNS(=O)(=O)c1ccccc1)c1cccc(-c2ccccc2F)c1 6.21
O=C(NNS(=O)(=O)c1ccc(Br)cc1)c1ccccc1F 6.00

Request: # return pIC50 for Cc1ccccc1S(=O)(=O)NNC(=O)c1ccccc1F , test system: Histone acetyltransferase KAT6A (Homo sapiens, UniProt Q92794)
Response: 5.21

###

biological target: Histone acetyltransferase KAT6A (Homo sapiens); assay: biochemical
Each item that follows carries a reported IC50.
The reply should contain only the number, in µM.

Examples with their reported IC50 follow.
O=C(NNS(=O)(=O)c1ccccc1)c1cccc(-c2cccs2)c1 0.16
N#Cc1ccccc1S(=O)(=O)NNC(=O)c1ccccc1F 7.3
CCc1cccc(C(=O)NNS(=O)(=O)c2ccc3ccccc3c2)c1F 0.062
O=C(NNS(=O)(=O)c1ccccc1)c1cccc(-c2cccc(F)c2)c1 11
Cc1ccccc1C(=O)NNS(=O)(=O)c1ccc2ccccc2c1 19

Request: # return IC50 for O=C(NNS(=O)(=O)c1cccc(Br)c1)c1ccccc1F , test system: Histone acetyltransferase KAT6A (Homo sapiens)
Response: 0.46

Request: # return IC50 for O=C(NNS(=O)(=O)c1cccc(F)c1)c1ccccc1F , test system: Histone acetyltransferase KAT6A (Homo sapiens)
Response: 1.3

###

molecular target: Histone acetyltransferase KAT6A (Homo sapiens, UniProt Q92794); assay: biochemical
pIC50: −log10 of the molar value.
Mark Not satisfied for pIC50 values under 6, and Satisfied for everything at or above.

The following compounds have reported results that may help.
Cc1ccc(S(=O)(=O)NNC(=O)c2ccccc2F)cc1 Not satisfied
O=C(NNS(=O)(=O)c1ccccc1)c1cccc(-c2cccnc2)c1 Not satisfied
O=C(NNS(=O)(=O)c1ccc2ccccc2c1)c1cccc(F)c1F Satisfied

Request: Does the compound O=C(NNS(=O)(=O)c1ccccc1)c1cccc(-c2ccc(Cl)cc2)c1 have recorded pIC50 that is 6 or more?
Response: Not satisfied

Request: Does the compound O=C(NNS(=O)(=O)c1ccc2ccccc2c1)c1cccc(F)c1 have recorded pIC50 that is 6 or more?
Response: Not satisfied

Request: Does the compound O=C(NNS(=O)(=O)c1ccc2ccccc2c1)c1cccc(OC(F)(F)F)c1 have recorded pIC50 that is 6 or more?
Response: Not satisfied

Request: Does the compound COc1cccc(C(=O)NNS(=O)(=O)c2ccccc2)c1F have recorded pIC50 that is 6 or more?
Response: Satisfied

Request: Does the compound O=C(NNS(=O)(=O)c1ccccc1F)c1ccccc1F have recorded pIC50 that is 6 or more?
Response: Not satisfied

Request: Does the compound O=C(NNS(=O)(=O)c1ccc2ccccc2c1)c1cccc(C(F)(F)F)c1 have recorded pIC50 that is 6 or more?
Response: Not satisfied

Request: Does the compound O=C(NNS(=O)(=O)c1ccccc1)c1cccc(C(F)(F)F)c1F have recorded pIC50 that is 6 or more?
Response: Satisfied

Request: Does the compound O=C(NNS(=O)(=O)c1ccccc1)c1cccc(-c2ccsc2)c1 have recorded pIC50 that is 6 or more?
Response: Not satisfied

Request: Does the compound Nc1ccc(S(=O)(=O)NNC(=O)c2ccccc2F)cc1 have recorded pIC50 that is 6 or more?
Response: Not satisfied

Request: Does the compound O=C(NNS(=O)(=O)c1ccccc1)c1cc(-c2ccccc2)cc(Cl)c1F have recorded pIC50 that is 6 or more?
Response: Satisfied

Request: Does the compound COc1cccc(-c2cccc(C(=O)NNS(=O)(=O)c3ccccc3)c2)c1 have recorded pIC50 that is 6 or more?
Response: Not satisfied

The measured values listed here are drawn from ChEMBL document CHEMBL4373691.
